Source listed as patent US20240174662A1.

# test.system: SIK2 (Homo sapiens (Human))
# procedure.details: SIK2 Enzymatic Assay Version 2 (High ATP)
# Assay type: biochemical
# details: 3 mM ATP and 200 μM HDAC5tide final, ADP-Glo Max luminescence
readout.name: IC50 (nM)

A = Cc1cnc(Nc2cc3cc(-c4c(OC[C@H]5CCN5C)noc4C)ccn3n2)cn1
B = Cc1onc(O[C@@H]2CCN(C)C3(CCC3)C2)c1-c1ccn2nc(NC(=O)C3CC3)cc2c1 (single isomer, unassigned)
C = CCN1CC[C@@H]1COc1cnn(C)c1-c1ccn2nc(Nc3cc(C(F)(F)F)ncn3)cc2c1
Q. Using measured IC50, arrange the compounds from above in descending sequence. Write the labels out in the order the request specifies.
A. B, A, C
(B: 44.3 nM, A: 25.6 nM, C: 1.5 nM)

I = CN1CC[C@H](Oc2cnn(C)c2-c2ccn3nc(Nc4cc5ccccn5n4)cc3c2)C1
II = CN1CC[C@@H](COc2cnn(CC3CC3)c2-c2ccn3nc(NC(=O)C4CC4)cc3c2)C1
III = Cc1cc(Nc2cc3cc(-c4c(OC[C@@H]5CC[C@@H]5O)cnn4C)ccn3n2)nc(C)n1 (single isomer, unassigned)
Q. Could you please sort these 3 entries by IC50 from high to low? Please list each label once, in the requested order.
A. II, III, I

a = Cc1cc(Nc2cc3cc(-c4c(OC[C@@H]5CC6(CCC6)CO5)cnn4C)ccn3n2)nc(C)n1 (single isomer, unassigned)
b = CN1CC[C@@H]1COc1cnn(C)c1-c1ccn2nc(Nc3ccc(C(=O)NCCC#N)cn3)cc2c1
Q. Compare the recorded IC50 of a and b ; state which is larger. Label of pick, please.
A. a

---

# test.system: SIK2 (Homo sapiens (Human), UniProt Q9H0K1)
# Sequence (Q9H0K1 whole entry, species assumed): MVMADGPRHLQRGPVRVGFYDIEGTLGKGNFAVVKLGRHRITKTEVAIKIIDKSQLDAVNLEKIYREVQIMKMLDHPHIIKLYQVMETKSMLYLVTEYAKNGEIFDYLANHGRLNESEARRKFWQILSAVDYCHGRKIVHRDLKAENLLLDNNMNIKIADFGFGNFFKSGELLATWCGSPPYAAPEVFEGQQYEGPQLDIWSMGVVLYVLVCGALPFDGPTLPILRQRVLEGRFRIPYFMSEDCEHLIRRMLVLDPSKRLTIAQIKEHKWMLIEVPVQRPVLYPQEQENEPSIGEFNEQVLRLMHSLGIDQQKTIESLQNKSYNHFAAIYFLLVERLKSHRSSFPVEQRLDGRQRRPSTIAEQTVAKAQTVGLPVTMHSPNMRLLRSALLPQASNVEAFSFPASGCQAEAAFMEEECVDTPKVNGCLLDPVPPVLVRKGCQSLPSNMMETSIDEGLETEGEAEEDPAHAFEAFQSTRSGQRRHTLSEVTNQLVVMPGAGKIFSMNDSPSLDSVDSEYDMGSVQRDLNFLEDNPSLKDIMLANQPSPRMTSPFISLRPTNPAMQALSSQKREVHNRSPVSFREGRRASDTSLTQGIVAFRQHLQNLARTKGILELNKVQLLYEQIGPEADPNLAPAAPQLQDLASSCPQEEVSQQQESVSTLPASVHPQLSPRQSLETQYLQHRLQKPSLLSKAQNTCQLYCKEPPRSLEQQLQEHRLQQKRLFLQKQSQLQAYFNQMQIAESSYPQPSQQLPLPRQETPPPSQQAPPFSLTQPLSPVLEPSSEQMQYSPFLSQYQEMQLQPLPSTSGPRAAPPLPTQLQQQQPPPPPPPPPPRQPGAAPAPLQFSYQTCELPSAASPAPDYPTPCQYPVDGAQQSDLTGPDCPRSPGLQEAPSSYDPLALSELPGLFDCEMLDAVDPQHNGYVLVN
# procedure.details: SIK2 Enzymatic Assay Version 2 (High ATP)
# Type: biochemical
# details: 3 mM ATP and 200 μM HDAC5tide final, ADP-Glo Max luminescence
readout.name: IC50 (nM)

Worked cases, IC50 given:
[[record]]
compound = "Cc1onc(OCC2(C(N)=O)CNC2)c1-c1ccn2nc(NC(=O)C3CC3)cc2c1 [Example 198]"
test_system = "SIK2 (Homo sapiens (Human), UniProt Q9H0K1)"
readout_name = "IC50"
unit_of_measurement = "nM"
reading = 28.7

[[record]]
compound = "CCN1CC[C@@H]1COc1cnn(C(F)F)c1-c1ccn2nc(Nc3ccnc(C)n3)cc2c1 [Example 477]"
test_system = "SIK2 (Homo sapiens (Human), UniProt Q9H0K1)"
readout_name = "IC50"
unit_of_measurement = "nM"
reading = 2.1


I = CO[C@@H]1CNC[C@@H]1Oc1cnn(C)c1-c1ccn2nc(NC(=O)C3CC3)cc2c1 (single isomer, unassigned) [Example 40]
II = CN1C[C@@H](F)[C@@H](Oc2cnn(C)c2-c2ccn3nc(NC(=O)C4CC4)cc3c2)C1 [Example 499]
Q. Compare IC50: is it lower for I or for II ? Provide the label of your selected option as the answer.
A. I

---

# test.system: SIK2 (Homo sapiens (Human))
# procedure.details: SIK2 Enzymatic Assay Version 2 (High ATP)
# Format: biochemical
# details: 3 mM ATP and 200 μM HDAC5tide final, ADP-Glo Max luminescence
pIC50: −log10 of the molar value.
readout.name: pIC50

For orientation, consider the following solved cases.
[[record]]
compound = "Cc1cc(Nc2cc3cc(-c4c(O[C@H]5C[C@@H]6CC[C@H]5O6)cnn4C)ccn3n2)nc(C)n1 (single isomer, unassigned)"
reading = 7.14

[[record]]
compound = "C[C@H]1[C@H](COc2cnn(C)c2-c2ccn3nc(NC(=O)C4CC4)cc3c2)CN1C (single isomer, unassigned)"
reading = 7.26


P = Cn1ncc(OC[C@H]2CCN2CC2CC2)c1-c1ccn2nc(NC(=O)C3CC3)cc2c1
Q = Cc1onc(OC[C@@]23C[C@@H](CO2)N(C)C3)c1-c1ccn2nc(NC(=O)C3CC3)cc2c1
Q. Of the pair P and Q , name the member with the lesser recorded pIC50. Bench note: the answer is the label of the chosen record.
A. Q

1 = Cc1onc(OC[C@@H](N)c2ccccc2F)c1-c1ccn2nc(NC(=O)C3CC3)cc2c1
2 = CCN1CC[C@@H]1COc1cnn(C(F)F)c1-c1ccn2nc(Nc3cc(C)c(OC)nn3)cc2c1
Q. Hey, which is lower on measured pIC50, 1 or 2 ? # respond with the chosen item's label
A. 1
